Where do these numbers come from? They come from ChEMBL document CHEMBL4422685.

# TESTED_ON: Multidrug efflux pump subunit AcrB (Escherichia coli (strain K12)) (UniProt P31224)
# Sequence (P31224 whole entry): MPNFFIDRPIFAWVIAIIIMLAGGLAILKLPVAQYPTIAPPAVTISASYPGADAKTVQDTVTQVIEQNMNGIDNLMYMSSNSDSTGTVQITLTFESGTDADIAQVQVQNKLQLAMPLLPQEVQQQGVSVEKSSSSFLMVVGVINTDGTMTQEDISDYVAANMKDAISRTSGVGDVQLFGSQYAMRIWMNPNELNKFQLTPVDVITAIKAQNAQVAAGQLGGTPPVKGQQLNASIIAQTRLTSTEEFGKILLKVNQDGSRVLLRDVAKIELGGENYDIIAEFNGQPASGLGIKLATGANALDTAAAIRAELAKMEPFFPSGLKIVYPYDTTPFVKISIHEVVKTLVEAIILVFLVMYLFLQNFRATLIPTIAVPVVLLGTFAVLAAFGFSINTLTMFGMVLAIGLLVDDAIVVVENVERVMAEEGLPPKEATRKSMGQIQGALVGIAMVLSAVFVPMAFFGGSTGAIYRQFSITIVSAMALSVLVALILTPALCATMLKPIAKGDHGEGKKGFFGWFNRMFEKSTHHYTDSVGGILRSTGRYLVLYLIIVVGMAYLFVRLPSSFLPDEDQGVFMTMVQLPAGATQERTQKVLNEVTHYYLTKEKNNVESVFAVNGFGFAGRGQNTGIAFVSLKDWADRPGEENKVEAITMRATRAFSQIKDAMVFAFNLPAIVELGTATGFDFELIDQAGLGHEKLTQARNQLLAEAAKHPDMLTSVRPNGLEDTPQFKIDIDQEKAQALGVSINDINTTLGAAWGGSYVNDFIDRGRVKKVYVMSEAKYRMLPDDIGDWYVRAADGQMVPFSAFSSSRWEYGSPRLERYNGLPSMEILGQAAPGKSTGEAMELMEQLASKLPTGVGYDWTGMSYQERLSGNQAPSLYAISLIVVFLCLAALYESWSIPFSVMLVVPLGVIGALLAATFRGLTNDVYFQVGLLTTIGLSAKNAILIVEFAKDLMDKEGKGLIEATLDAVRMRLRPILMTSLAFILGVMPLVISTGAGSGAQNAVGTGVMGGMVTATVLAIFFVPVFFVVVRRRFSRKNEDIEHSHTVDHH
# TEST_DESCRIPTION: Inhibition of AcrB in wild-type drug-resistant Escherichia coli […] assessed as potentiation of erythromycin-induced antimicrobial activity by measuring erythromycin MIC at 128 ug/ml by checkerboard titration method (reference value: 64 ug/ml)
ASSAY_ENDPOINT: MIC (µg/mL)
Please give a number only; it is taken to be in µg/mL.

CCCCCCN1C(=O)c2cc3cccc(OC)c3cc2C1=O; 8
CCCCCN1C(=O)c2cc3cccc(OC)c3cc2C1=O; 8
COc1cccc2cc3c(cc12)C(=O)N(Cc1ccccc1Cl)C3=O; 32
CCc1ccccc1N1C(=O)c2cc3cccc(OC)c3cc2C1=O; 32
COc1cccc2cc3c(cc12)C(=O)N(C(C)C)C3=O; 32
COc1cccc2cc3c(cc12)C(=O)N(C1CCCC1)C3=O; 8

Q. Tell me measured MIC for `COc1cccc2cc3c(cc12)C(=O)N(Cc1ccccc1)C3=O` please.
A. 16

Q. Tell me measured MIC for `COc1cccc2cc3c(cc12)C(=O)N(c1ccccc1Cl)C3=O` please.
A. 16

Q. Tell me measured MIC for `COc1ccccc1CN1C(=O)c2cc3cccc(OC)c3cc2C1=O` please.
A. 64

---

# Tested on: Escherichia coli
# TEST_DESCRIPTION: Induction of Escherichia coli outer membrane permeabilization assessed as increase in nitrocefin hydrolysis at 128 ug/ml by spectroscopic method
# Assay type: organism-based
ASSAY_ENDPOINT: Activity

CCc1ccccc1N1C(=O)c2cc3cccc(OC)c3cc2C1=O; Non-Toxic
COc1ccccc1CN1C(=O)c2cc3cccc(OC)c3cc2C1=O; Non-Toxic
CCCCCN1C(=O)c2cc3cccc(OC)c3cc2C1=O; Non-Toxic

---

In this section, each of the molecules is paired with its reported MIC.
# TESTED_ON: Multidrug efflux pump subunit AcrB (Escherichia coli (strain K12)) (UniProt P31224)
# TEST_DESCRIPTION: Inhibition of AcrB in wild-type drug-resistant Escherichia coli […] assessed as potentiation of chloramphenicol-induced antimicrobial activity by measuring chloramphenicol MIC at 64 ug/ml by checkerboard titration method (Rvb =16 ug/ml)

Check out these entries, answers already filled in.
COc1cccc2cc3c(cc12)C(=O)N(c1ccccc1Cl)C3=O; 16 µg/mL
COc1cccc2cc3c(cc12)C(=O)N(Cc1ccccc1Cl)C3=O; 16 µg/mL
CCCCCCN1C(=O)c2cc3cccc(OC)c3cc2C1=O; 8 µg/mL
COc1cccc2cc3c(cc12)C(=O)N(C)C3=O; 16 µg/mL
CCc1ccccc1N1C(=O)c2cc3cccc(OC)c3cc2C1=O; 16 µg/mL
COc1ccccc1CN1C(=O)c2cc3cccc(OC)c3cc2C1=O; 16 µg/mL
COc1ccc(CN2C(=O)c3cc4cccc(OC)c4cc3C2=O)cc1; 16 µg/mL
COc1cccc2cc3c(cc12)C(=O)N(C(C)C)C3=O; 8 µg/mL
COc1cccc2cc3c(cc12)C(=O)N(C(C)(C)C)C3=O; 16 µg/mL
CCCCCN1C(=O)c2cc3cccc(OC)c3cc2C1=O; 8 µg/mL

Q. Tell me measured MIC for `COc1cccc2cc3c(cc12)C(=O)N(Cc1ccccc1)C3=O` please.
A. 16 µg/mL

Q. Tell me measured MIC for `COc1cccc2cc3c(cc12)C(=O)N(C1CCCC1)C3=O` please.
A. 16 µg/mL
